Each recorded value in this set is attributed to the supplement of paper PMC10567573.

Record form. Attribute: protein stability index. Fill in for each entry.
B1: INTS4 (parent)
chain: TIIEPAGESDNPLRFTSGLVVALD

Variants of: B1
measurement.description: protein stability index of a GFP-peptide fusion (GPS, HEK-293T) (PSI 1-6); higher = more stable;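 note: lentivirally expressed fusions sorted by FACS into six bins by GFP to DsRed ratio, PSI derived from sequencing read proportions per bin multiplied by bin number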
measurement.setup: c terminus: a fixed tail appended

The measured protein stability index associated with TIIEPAGESDDPLRFTSGLVVALD [N11D] reads 3.33

The measured protein stability index associated with TIIEPAGESDNPLRFTSGLVVMLD [A22M] reads 2.26

The measured protein stability index associated with TIFEPAGESDNPLRFTSGLVVALD [I3F] reads 2.38

The measured protein stability index associated with TIIEPAGESDNPLRFTSGLVVAVD [L23V] reads 3.1
